Data provenance: patent US8859541B2

- system: XIAP BIR3 (Homo sapiens, UniProt P98170)
- Construct: covering amino acids 241 to 356; XIAP BIR3
- Sequence (P98170 241-356): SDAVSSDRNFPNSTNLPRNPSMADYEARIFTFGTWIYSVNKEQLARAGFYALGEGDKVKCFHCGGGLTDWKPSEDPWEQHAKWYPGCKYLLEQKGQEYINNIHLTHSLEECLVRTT
- test: XIAP BIR3 binding assay (DELFIA), displacement of SMAC peptide
- assay-setup: GST-fusion BIR3 domain (aa 241 to 356) 10 nM, SMAC peptide 10 nM; activity of the (S)-isomers
readout-kind: IC50 (nM)

CC(N)C(=O)Nc1cc2ccccc2c(C#Cc2ccccn2)n1 (centres unmarked)    3620
CNC(C)C(=O)Nc1ccc(-c2cncnc2)c(C#Cc2ccc3scnc3c2)n1 (centres unmarked)    711
CNC(C)C(=O)Nc1ccc(-c2cncnc2)c(C#Cc2ccc3ccccc3c2)n1 (centres unmarked)    265
CC(N)C(=O)Nc1ccc(-c2ccccc2C(F)(F)F)c(C#Cc2ccccc2)n1 (centres unmarked)    3190
CC(N)C(=O)Nc1cccc(C#Cc2cc(Cl)cc(Cl)c2)n1 (centres unmarked)    4860

(a) CNC(C)C(=O)Nc1ccc(-c2c(C)nc3cc(Cl)ccn23)c(C#Cc2ccc3ncccc3c2)n1 (centres unmarked)
(b) CC(N)C(=O)Nc1ccc(-c2cccc(C#N)c2)c(C#Cc2ccccc2)n1 (centres unmarked)
(c) CNC(C)C(=O)Nc1ccc(-c2cncc3ccccc23)c(C#Cc2ccc3c(c2)OCC(=O)N3)n1 (centres unmarked)
(d) CCNC(CC)C(=O)Nc1ccc(-c2cncnc2)c(C#Cc2ccc3ncccc3c2)n1 (centres unmarked) [Example 169]
(e) CNC(C)C(=O)Nc1ccc(-c2c(Cl)cncc2Cl)c(C#Cc2ccc3ncccc3c2)n1 (centres unmarked)
Data request: Could you please order the items by IC50, going from the lowest number to the highest? Give the order by naming the labels one after another as requested.
Data returned: a, b, c, d, e
(a: 145 nM, b: 228 nM, c: 509 nM, d: 1150 nM, e: 2880 nM)

(a) CNC(C)C(=O)Nc1ccc(-c2c(C)nc3cnccn23)c(C#Cc2ccc3ncccc3c2)n1 (centres unmarked)
(b) CNC(C)C(=O)Nc1ccc(-c2c(C)nc3ccccn23)c(C#Cc2ccc3cnn(C)c3c2)n1 (centres unmarked)
(c) CCNC(CC)C(=O)Nc1ccc(-c2cncnc2)c(C#Cc2ccc3ncccc3c2)n1 (centres unmarked) [Example 170]
(d) CNC(C)C(=O)Nc1ccc(-c2ccc(N3CCCC3)nc2)c(C#Cc2ccccc2)n1 (centres unmarked)
(e) CNC(C)C(=O)Nc1ccc(-c2cncnc2)c(C#Cc2ccc3ncccc3c2)n1 (centres unmarked)
Data request: Could you please order the items by IC50, going from the lowest number to the highest? Give the order by naming the labels one after another as requested.
Data returned: b, a, d, e, c
(b: 107 nM, a: 165 nM, d: 436 nM, e: 867 nM, c: 1370 nM)

###

- system: cIAP1 BIR3 (Homo sapiens)
- Construct: covering amino acids 256 to 363; cIAP1 BIR3
- Sequence (Q13490 256-363): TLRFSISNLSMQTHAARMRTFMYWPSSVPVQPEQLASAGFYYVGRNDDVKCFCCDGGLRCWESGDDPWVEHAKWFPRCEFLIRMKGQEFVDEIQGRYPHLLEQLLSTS
- test: cIAP1 BIR3 binding assay (DELFIA), displacement of SMAC peptide
- assay-setup: GST-fusion BIR3 domain (aa 256 to 363) 10 nM, SMAC peptide 10 nM; activity of the (S)-isomers
readout-kind: IC50 (nM)

CNC(C)C(=O)Nc1ccc(-c2c(C)nc3ccccn23)c(C#Cc2ccc3cnccc3c2)n1 (stereo not drawn)    1
CNC(C)C(=O)Nc1ccc(-c2c(C)nc3ccccn23)c(C#Cc2ccc(-n3ccnc3)cc2)n1 (stereo not drawn)    1
CNC(C)C(=O)Nc1ccc(-c2c(-c3ccncc3)nc3cc(C)ccn23)c(C#Cc2ccc3nccn3c2)n1 (stereo not drawn)    1
